- testSummary: Half life in ICR (CD-1) mouse at 50 mg/kg, ip measured for 24 hrs by LC-MS/MS analysis
- Type: ADME, organism-based
- protocolConditions: in vivo
Reported half-life is given for each of the following molecules.
All answers are understood in h, so give the number only.

Some molecules with known half-life results, for comparison:
>>> endpointvalue("Cc1cnc(Nc2ccc(OCCN3CCCC3)cc2)nc1Nc1cccc(S(=O)(=O)NC(C)(C)C)c1")
2.88
>>> endpointvalue("Cc1cnc(Nc2ccc(OCCN3CCCC3)cc2)nc1Nc1ccc(C(=O)NO)cc1")
2.51

Alright, here's another molecule for you.
Quick one: half-life for O=C(CCCCCCC(=O)Nc1ccccc1)NO ?
1.35

====

- testSummary: Cmax in ICR (CD-1) mouse at 50 mg/kg, ip measured for 24 hrs by LC-MS/MS analysis
- Format: ADME, organism-based
- Parameters: time 24 hrs, dose 50 mg/kg, route ip
- protocolConditions: in vivo
Reported Cmax is given for each of the following compounds.
All answers are understood in ng/mL, so give the number only.

>>> endpointvalue("Cc1cnc(Nc2ccc(OCCN3CCCC3)cc2)nc1Nc1cccc(S(=O)(=O)NC(C)(C)C)c1")
9750
>>> endpointvalue("Cc1cnc(Nc2ccc(OCCN3CCCC3)cc2)nc1Nc1ccc(C(=O)NO)cc1")
9560

Alright, here's another compound for you.
Quick one: Cmax for O=C(CCCCCCC(=O)Nc1ccccc1)NO ?
3930

====

Reported MRT last at 24 h is given for each of the following compounds.
- testSummary: MRT (0 to t) in ICR (CD-1) mouse at 50 mg/kg, ip measured for 24 hrs by LC-MS/MS analysis
- Type: ADME, organism-based
- protocolConditions: in vivo
All answers are understood in h, so give the number only.

>>> endpointvalue("O=C(CCCCCCC(=O)Nc1ccccc1)NO [VORINOSTAT]")
0.67
>>> endpointvalue("Cc1cnc(Nc2ccc(OCCN3CCCC3)cc2)nc1Nc1ccc(C(=O)NO)cc1")
2.18

Quick one: MRT last at 24 h for Cc1cnc(Nc2ccc(OCCN3CCCC3)cc2)nc1Nc1cccc(S(=O)(=O)NC(C)(C)C)c1 [FEDRATINIB] ?
2.33

====

- testTarget: UniProtKB Q96DB2
- Sequence (Q96DB2 whole entry): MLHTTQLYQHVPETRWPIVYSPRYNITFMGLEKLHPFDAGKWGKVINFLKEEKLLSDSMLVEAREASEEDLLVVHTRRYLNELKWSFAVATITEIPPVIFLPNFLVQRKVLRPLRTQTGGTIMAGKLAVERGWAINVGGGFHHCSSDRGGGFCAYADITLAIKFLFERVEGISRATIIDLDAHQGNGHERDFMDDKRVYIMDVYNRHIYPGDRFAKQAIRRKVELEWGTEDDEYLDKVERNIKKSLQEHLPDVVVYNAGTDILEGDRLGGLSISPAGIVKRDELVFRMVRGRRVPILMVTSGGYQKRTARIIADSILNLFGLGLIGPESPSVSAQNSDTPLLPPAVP
pIC50: −log10 of the molar value.
readoutName: pIC50

Lab request: please report pIC50 under test system UniProtKB Q96DB2 for Cc1cnc(Nc2ccc(OCCN3CCCC3)cc2)nc1Nc1ccc(C(=O)NO)cc1
< 5.30
